tested on: SF-295 CNS; assay: NCI tumour cell line growth inhibition, 48 h
Quick reference for TGI among some compounds
Attribute measured: TGI

INSERT INTO measurements (compound, measured_result) VALUES
  ('CC1CC(C)(O)C2C3(C)CCCC2(COC3=O)C12CCC1(CCOC1=O)O2 (stereo not given)', '> 250 µM'),
  ('COc1nc(=O)[nH]c2c1C(c1ccc([N+](=O)[O-])cc1)c1c(OC)nc(=O)[nH]c1O2', '> 100 µM'),
  ('COc1ccccc1CNCCCN1C(=O)c2ccc3c4c(ccc(c24)C1=O)C(=O)N(CCCNCCCCNCCCN)C3=O', '6.79 µM'),
  ('C=C1N(C)c2ccc(S(=O)(=O)c3ccc4c(c3)C(C)(C)C(=C)N4C)cc2C1(C)C', '> 100 µM'),
  ('COC(=O)c1cc(/C=C/C(=O)Cc2ccccc2)cn1S(=O)(=O)c1ccccc1', '> 100 µM');

* * *

tested on: COLO 205 colon; test: NCI tumour cell line growth inhibition, 48 h
Attribute measured: TGI

INSERT INTO measurements (molecule, attribute_measured, measured_result) VALUES
  ('CCCCCN1C(=O)C(Cc2ccccc2)N=C(c2ccc(O)cc2)c2cc(Cl)ccc21 (configuration not stated)', 'TGI', '10.1 µM'),
  ('CC1CC(C)(O)C2C3(C)CCCC2(COC3=O)C12CCC1(CCOC1=O)O2 (configuration not stated)', 'TGI', '> 250 µM'),
  ('O=c1ccn(C/C=C/c2ccccc2)c(=S)n1C/C=C/c1ccccc1', 'TGI', '> 100 µM'),
  ('CC(=O)Oc1ccc2c(c1)[nH]c1c3ccc(OC(C)=O)cc3oc(=O)c21', 'TGI', '> 100 µM'),
  ('COc1cccc(CCn2c(N)c(-c3cc(Cl)cc(Cl)c3)c3ccc([N+](=O)[O-])cc3c2=O)c1', 'TGI', '4.05 µM'),
  ('COc1ccc(-c2nc3sccn3c2-c2ccnc(NCCNS(=O)(=O)c3ccc(C(F)(F)F)cc3)n2)cc1', 'TGI', '> 100 µM'),
  ('CNC(=O)O/N=C1\N(C)CN(c2ccccc2)C12CCN(CCCC(=O)c1ccc(F)cc1)CC2', 'TGI', '33.2 µM');

* * *

Endpoint: GI50. System: U251 CNS. Items follow.
Attribute measured: GI50

INSERT INTO assay_data (structure_notation, attribute_measured, measured_result) VALUES
  ('CC(C)n1cc(-c2ccc3c(c2)N(C)CC3)c2c(NS(=O)(=O)c3ccn(C)n3)ccnc21', 'GI50', '61.9 µM'),
  ('O=C(/C=C(/C=C/c1cccc2[nH]ccc12)OB(F)F)/C=C/c1cccc2[nH]ccc12', 'GI50', '0.469 µM'),
  ('NC(=O)c1c[nH]c2ncnc(N)c12', 'GI50', '> 100 µM'),
  ('O=C(Cc1cc(O)ccc1O)NO', 'GI50', '32.7 µM'),
  ('Cc1cc(S(=O)(=O)Nc2nc3ccccc3c(=O)n2Cc2ccco2)c(S)cc1Cl', 'GI50', '45.8 µM'),
  ('Cn1cc(-c2csc(-c3ccccc3)n2)c2cccnc21', 'GI50', '13.6 µM');

* * *

The molecules listed here are annotated with their TGI.
system: OVCAR-8 ovarian; assay: NCI tumour cell line growth inhibition, 48 h
Attribute measured: TGI

INSERT INTO results (molecule, attribute_measured, measured_result) VALUES
  ('COc1ccc(C[C@H]2COC(=O)[C@@H]2Cc2ccc(Br)cc2)cc1OC', 'TGI', '> 100 µM'),
  ('[O-]c1c2c(nn1-c1ccc(F)cc1)c1ccccc1c[n+]2Cc1ccccc1', 'TGI', '61.9 µM'),
  ('COc1cc2ccnc(C#N)c2cc1OCc1ccccc1', 'TGI', '> 100 µM'),
  ('CS(=O)(=O)Nc1cc(-c2ccc3ncc(C#N)c(Nc4ccc(F)c(Cl)c4)c3c2)cnc1Cl', 'TGI', '> 100 µM'),
  ('C/C(=C\[Si](C)(C)c1ccco1)C(C)(O)[C@H](C)O (stereo not given in full)', 'TGI', '> 100 µM'),
  ('Cc1[nH]c(C(=O)Nc2cccc(OC3CCNCC3)c2)c(Cl)c1Cl', 'TGI', '4.31 µM'),
  ('CC(=Nc1ccc(Cl)cc1)c1ccncc1', 'TGI', '> 100 µM'),
  ('Cc1cn(C2CC(O)C(Cn3nncc3Cn3cnc4c(N)ncnc43)O2)c(=O)[nH]c1=O (stereo not given)', 'TGI', '> 100 µM'),
  ('Cc1ccc(S(=O)(=O)c2ccc(C)cc2[N+](=O)[O-])c([N+](=O)[O-])c1', 'TGI', '> 100 µM'),
  ('COC(=O)C(=O)C(C(=O)OC)C(=O)C(=O)Nc1cc(Cl)c(C)cc1S(=O)(=O)O (stereo not given)', 'TGI', '> 100 µM');

* * *

test system: PC-3 prostate; assay: NCI tumour cell line growth inhibition, 48 h
Recorded TGI for the following compounds
Attribute measured: TGI (µM)

INSERT INTO measurements (compound, study_system, qualifying_sign, measured_result) VALUES
  ('CCOC(=O)N1c2ccccc2N(C(=O)OCC)C1CC(=O)/C=C/c1ccccc1', 'PC-3 prostate', '=', 19.8),
  ('COC(=O)c1cc(/C=C/C(=O)Cc2ccccc2)cn1S(=O)(=O)c1ccccc1', 'PC-3 prostate', '>', 100),
  ('COc1cc2c(Nc3ccc(-c4ccc(N)cc4)cc3)ncnc2c(OC)c1OC', 'PC-3 prostate', '>', 89.1),
  ('COC(=O)C1C(C(=O)O)C2(c3ccccc3)C(=O)C1(c1ccccc1)C(c1ccc(OC)cc1)=C2c1ccc(OC)cc1 (stereo unspecified)', 'PC-3 prostate', '=', 31.3),
  ('O=C(Cc1cc(O)ccc1O)NO', 'PC-3 prostate', '>', 100),
  ('COc1cc(-c2nc(N)c(C#N)c3c2CCS(=O)(=O)c2ccc(C)cc2-3)cc(OC)c1OC', 'PC-3 prostate', '>', 100),
  ('c1ccc2c(c1)nc1ccccn12', 'PC-3 prostate', '>', 100),
  ('Nc1c(S(=O)(=O)O)cc(S(=O)(=O)O)c2ccc(N=Nc3ccccc3)c(O)c12', 'PC-3 prostate', '>', 100),
  ('O=C(CCN1CCCCC1)c1csc2ccccc12', 'PC-3 prostate', '>', 100),
  ('O=C1CC(n2ccnc2)c2c(Cl)sc(Cl)c21 (stereo unspecified)', 'PC-3 prostate', '=', 36.7),
  ('CC/C(Cl)=N\OC(=O)Nc1ccc(F)c(Cl)c1', 'PC-3 prostate', '=', 29.6),
  ('CC(=O)N1C(c2[nH]c3ccccc3c2Cc2ccccc2)CCN1c1ccccc1 (stereo unspecified)', 'PC-3 prostate', '>', 10),
  ('COc1cc(-c2oc3c(OC)c(O)c(OC)c(O)c3c(=O)c2OC)cc(OC)c1OC', 'PC-3 prostate', '>', 100),
  ('CC1(C)CC[C@]23CC[C@]4(C)[C@H](CC[C@@H]5[C@@]6(C)CCCNC(C)(C)[C@@H]6CC[C@]54C)[C@H]2[C@H]1OC3', 'PC-3 prostate', '=', 3.17),
  ('Cc1cn2c(/C=N/N=C(N)N)c(-c3ccc([N+](=O)[O-])cc3)nc2s1', 'PC-3 prostate', '=', 2.73),
  ('CC(C)=CCC/C(C)=C/Cc1c2c(c3oc(-c4ccc(O)c(O)c4)c(O)c(=O)c3c1O)C=CC(C)(C)O2', 'PC-3 prostate', '=', 12.5),
  ('O=C1NC(c2ccc3ccccc3c2)Nc2ccccc21 (stereo unspecified)', 'PC-3 prostate', '>', 100),
  ('OC1C2CCCCN2C[C@@H](O)[C@H]1O (stereo partly specified)', 'PC-3 prostate', '>', 100),
  ('O=C1CSC(c2ccccc2)N1c1ccc(-c2ccc(-n3c(-c4ccccc4)nc4ccccc4c3=O)cc2)cc1 (stereo unspecified)', 'PC-3 prostate', '>', 100),
  ('COc1ccc(OC(=O)N2C/C(=C\c3ccccc3)C(=O)/C(=C/c3ccccc3)C2)cc1', 'PC-3 prostate', '=', 11.2),
  ('C[C@@]12CC[C@@H](O)C[C@@H]1CC[C@H]1[C@H]2CC[C@@]2(C)[C@H](c3ccc(=O)oc3)CC[C@@]12O', 'PC-3 prostate', '=', 0.0209);

* * *

test system: COLO 205 colon; experiment: NCI tumour cell line growth inhibition, 48 h
Property: GI50; scope: individual molecules
Attribute measured: GI50

INSERT INTO assay_data (molecule, study_system, attribute_measured, measured_result) VALUES
  ('CC(=O)[O-].CC(=O)[O-].O=C([CH-]C(=O)c1ccccc1)c1ccccc1.[Nd+3].[OH3+]', 'COLO 205 colon', 'GI50', '27.9 µM'),
  ('CC(C)[C@@]12C[C@@H](OC(=O)COC(=O)c3ccccc3)[C@@](C)(O1)[C@@H]1CC[C@@H](C)[C@H]1[C@@H]2OC(=O)/C=C/c1ccccc1', 'COLO 205 colon', 'GI50', '> 100 µM'),
  ('CC1(C)CC[C@]23CC[C@]4(C)[C@H](CC[C@@H]5[C@@]6(C)CCCNC(C)(C)[C@@H]6CC[C@]54C)[C@H]2[C@H]1OC3', 'COLO 205 colon', 'GI50', '1.28 µM'),
  ('COc1ccc(-c2cc(=O)c3c(OC)c4ccoc4c(/C=C/C=O)c3o2)cc1', 'COLO 205 colon', 'GI50', '27.5 µM'),
  ('Cc1nc2ccc(-n3ncc(C(=O)c4cc5ccccc5[nH]4)c3N)cc2[nH]1', 'COLO 205 colon', 'GI50', '4.77 µM'),
  ('CCOC(=O)C1=C(C)NC2SC(=O)/C(=C\c3cccc(Cl)c3)N2C1c1ccccc1 (stereo not drawn)', 'COLO 205 colon', 'GI50', '> 100 µM'),
  ('Nc1nc(N)c2cc(S(=O)(=O)c3ccc4ccccc4c3)ccc2n1', 'COLO 205 colon', 'GI50', '6.37 µM'),
  ('COc1cc2c(Nc3ccc(-c4ccc(N)cc4)cc3)ncnc2c(OC)c1OC', 'COLO 205 colon', 'GI50', '2.6 µM');
